- System Under Test: Coagulation factor XI (Homo sapiens)
- Sequence (P03951 19-387 limits assumed): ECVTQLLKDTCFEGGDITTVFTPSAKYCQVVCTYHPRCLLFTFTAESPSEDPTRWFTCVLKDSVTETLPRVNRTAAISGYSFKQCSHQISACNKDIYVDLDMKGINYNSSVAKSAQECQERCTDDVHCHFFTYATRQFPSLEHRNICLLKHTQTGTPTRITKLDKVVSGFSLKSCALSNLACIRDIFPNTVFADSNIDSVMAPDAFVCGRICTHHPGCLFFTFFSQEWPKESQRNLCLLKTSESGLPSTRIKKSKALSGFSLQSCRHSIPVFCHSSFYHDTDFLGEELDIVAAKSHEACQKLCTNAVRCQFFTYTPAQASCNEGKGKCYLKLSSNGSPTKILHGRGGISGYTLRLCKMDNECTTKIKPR
- Sequence (P03951 388-625 limits assumed): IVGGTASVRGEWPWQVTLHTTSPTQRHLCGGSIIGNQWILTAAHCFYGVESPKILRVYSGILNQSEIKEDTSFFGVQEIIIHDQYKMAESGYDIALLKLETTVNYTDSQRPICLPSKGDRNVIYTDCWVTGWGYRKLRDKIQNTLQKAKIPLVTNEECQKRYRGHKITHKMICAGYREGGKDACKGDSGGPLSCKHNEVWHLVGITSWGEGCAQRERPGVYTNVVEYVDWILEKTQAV
- Procedure Summary: In Vitro Assay: The effectiveness of compounds of the present invention as inhibitors of the coagulation Factors XIa, VIIa, IXa, Xa, XIIa, plasma kallikrein or thrombin, can be determined using a relevant purified serine protease, respectively, and an appropriate synthetic substrate. The rate of hydrolysis of the chromogenic or fluorogenic substrate by the relevant serine protease was measured both in the absence and presence of compounds of the present invention. […] A decrease in the rate of absorbance or fluorescence change in the presence of inhibitor is indicative of enzyme inhibition. Such methods are known to one skilled in the art.
Assay Readout: Ki (nM)
Give the quantity in nM, number only.

# input molecule: "O=C(/C=C/c1cc(Cl)ccc1-n1cnnn1)N[C@H]1CCCCC(=O)Nc2cc3[nH]ncc3cc2-c2c[nH]c1n2" ; wanted: its Ki
183
